tested on: MV4; 11; assay: Caspase-Glo 3/7 assay; type: cell-based; conditions: Homo sapiens; MV4;11, 48 h
pEC50: −log10 of the molar value.
readout_label: pEC50

| structure_as_smiles | endpoint_value |
| --- | --- |
| CC(C)(C)[C@H](c1nc(-c2cc(F)ccc2F)cn1Cc1ccccc1)N(CC[C@H](N)CF)C(=O)CO | 10.52 |

* * *

assay: In vivo pharmacokinetic parameters (clearance, half-life, AUC)
readout_label: AUC (µg·h/mL)

| molecule | readout_label | endpoint_value |
| --- | --- | --- |
| C[C@H](O)C(=O)N(CC[C@H](N)CF)[C@@H](c1nc(-c2cc(F)ccc2F)cn1Cc1ccccc1)C(C)(C)C [Compound IIc] | AUC | 1.7 |
| CC(C)(C)[C@H](c1nc(-c2cc(F)ccc2F)cn1Cc1ccccc1)N(CC[C@H](N)CF)C(=O)CO [Compound IIa] | AUC | 1.93 |
| CC(=O)N(CC[C@H](N)CF)[C@@H](c1nc(-c2cc(F)ccc2F)cn1Cc1ccccc1)C(C)(C)C [Compound Ib] | AUC | 0.867 |
| COCC(=O)N(CC[C@H](N)CF)[C@@H](c1nc(-c2cc(F)ccc2F)cn1Cc1ccccc1)C(C)(C)C [Compound Ia] | AUC | 2.67 |

* * *

tested on: Colo-205; test: LDH release assay; type: cell-based; conditions: Homo sapiens; Colo-205, 48 h

| compound | EC50 |
| --- | --- |
| CC(C)(C)[C@H](c1nc(-c2cc(F)ccc2F)cn1Cc1ccccc1)N(CC[C@H](N)CF)C(=O)CO [Compound IIa] | 110 pM |

* * *

tested on: T47-D; assay: Caspase-Glo 3/7 assay; type: cell-based; conditions: Homo sapiens, T47D, 72 h
pEC50: −log10 of the molar value.
readout_label: pEC50

| compound | readout_label | endpoint_value |
| --- | --- | --- |
| CC(C)(C)[C@H](c1nc(-c2cc(F)ccc2F)cn1Cc1ccccc1)N(CC[C@H](N)CF)C(=O)CO [Compound IIa] | pEC50 | 9.40 |

* * *

assay: In vivo pharmacokinetic parameters (clearance, half-life, AUC)
# half-life per record follows

| structure_as_smiles | half-life [min] |
| --- | --- |
| COCC(=O)N(CC[C@H](N)CF)[C@@H](c1nc(-c2cc(F)ccc2F)cn1Cc1ccccc1)C(C)(C)C | 117 |
| CC(=O)N(CC[C@H](N)CF)[C@@H](c1nc(-c2cc(F)ccc2F)cn1Cc1ccccc1)C(C)(C)C | 90 |
| CC(C)(C)[C@H](c1nc(-c2cc(F)ccc2F)cn1Cc1ccccc1)N(CC[C@H](N)CF)C(=O)CO | 110 |
| C[C@H](O)C(=O)N(CC[C@H](N)CF)[C@@H](c1nc(-c2cc(F)ccc2F)cn1Cc1ccccc1)C(C)(C)C | 110 |

* * *

tested on: T47-D; assay: Caspase-Glo 3/7 assay; assay type: cell-based; conditions: Homo sapiens, T47D, 48 h
pEC50: −log10 of the molar value.

| molecule | pEC50 |
| --- | --- |
| CC(C)(C)[C@H](c1nc(-c2cc(F)ccc2F)cn1Cc1ccccc1)N(CC[C@H](N)CF)C(=O)CO [Compound IIa] | 9.41 |

* * *

tested on: Colo-205; assay: Caspase-Glo 3/7 assay; format: cell-based; details: Homo sapiens; Colo-205, 72 h
readout_label: EC50 (pM)

| molecule | units_of_measure | endpoint_value |
| --- | --- | --- |
| CC(C)(C)[C@H](c1nc(-c2cc(F)ccc2F)cn1Cc1ccccc1)N(CC[C@H](N)CF)C(=O)CO [Compound IIa] | pM | 190 |
